molecular target: CYP1A2 (Homo sapiens); assay: biochemical; details: human, microsomes
Sequence (P05177 whole entry): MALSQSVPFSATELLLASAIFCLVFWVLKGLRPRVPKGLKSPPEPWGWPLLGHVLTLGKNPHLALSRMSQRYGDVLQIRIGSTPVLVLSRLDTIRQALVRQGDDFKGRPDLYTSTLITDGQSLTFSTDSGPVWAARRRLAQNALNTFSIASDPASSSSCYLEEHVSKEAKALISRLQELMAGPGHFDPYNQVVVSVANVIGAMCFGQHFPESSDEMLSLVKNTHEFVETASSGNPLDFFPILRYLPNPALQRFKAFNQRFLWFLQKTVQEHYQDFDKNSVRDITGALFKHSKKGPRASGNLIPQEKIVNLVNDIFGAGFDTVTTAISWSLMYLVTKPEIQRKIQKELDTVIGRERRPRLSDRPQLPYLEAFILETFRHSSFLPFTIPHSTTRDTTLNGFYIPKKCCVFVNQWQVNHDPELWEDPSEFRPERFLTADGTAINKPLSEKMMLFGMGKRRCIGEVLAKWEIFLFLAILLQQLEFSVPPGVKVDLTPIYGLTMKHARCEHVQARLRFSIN
measured endpoint: IC50

Input: Value lookup for IC50; key = CC(C)(CCCCOCCCCC(C)(C)C(=O)O)C(=O)O
Output: > 1.5 mM

* * *

molecular target: CYP3A4 (Homo sapiens, UniProt P08684); assay: biochemical; conditions: human, microsomes
Sequence (P08684 whole entry): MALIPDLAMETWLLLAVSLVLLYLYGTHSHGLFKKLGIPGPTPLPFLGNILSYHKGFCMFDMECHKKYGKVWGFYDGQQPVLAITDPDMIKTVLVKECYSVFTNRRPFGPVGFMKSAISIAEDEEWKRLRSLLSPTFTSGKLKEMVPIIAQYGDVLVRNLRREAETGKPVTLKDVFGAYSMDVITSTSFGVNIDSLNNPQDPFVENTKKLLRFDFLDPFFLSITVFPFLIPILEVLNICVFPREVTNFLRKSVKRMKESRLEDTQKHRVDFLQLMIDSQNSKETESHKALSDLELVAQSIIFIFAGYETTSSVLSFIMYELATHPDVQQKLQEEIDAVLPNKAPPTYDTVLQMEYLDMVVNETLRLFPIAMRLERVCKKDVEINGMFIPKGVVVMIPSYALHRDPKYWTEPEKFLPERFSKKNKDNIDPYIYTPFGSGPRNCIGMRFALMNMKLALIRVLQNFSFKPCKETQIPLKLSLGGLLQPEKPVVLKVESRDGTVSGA
measured endpoint: IC50

Input: Returns the measured IC50 for the input molecule. Input: CC(C)(CCCCOCCCCC(C)(C)C(=O)O)C(=O)O [Gemcabene, 6,6′-oxybis(2,2-dimethylhexanoic acid)]
Output: > 1500 µM

* * *

target: CYP2D6 (Homo sapiens); experiment: biochemical; conditions: human, microsomes
Sequence (P10635 whole entry): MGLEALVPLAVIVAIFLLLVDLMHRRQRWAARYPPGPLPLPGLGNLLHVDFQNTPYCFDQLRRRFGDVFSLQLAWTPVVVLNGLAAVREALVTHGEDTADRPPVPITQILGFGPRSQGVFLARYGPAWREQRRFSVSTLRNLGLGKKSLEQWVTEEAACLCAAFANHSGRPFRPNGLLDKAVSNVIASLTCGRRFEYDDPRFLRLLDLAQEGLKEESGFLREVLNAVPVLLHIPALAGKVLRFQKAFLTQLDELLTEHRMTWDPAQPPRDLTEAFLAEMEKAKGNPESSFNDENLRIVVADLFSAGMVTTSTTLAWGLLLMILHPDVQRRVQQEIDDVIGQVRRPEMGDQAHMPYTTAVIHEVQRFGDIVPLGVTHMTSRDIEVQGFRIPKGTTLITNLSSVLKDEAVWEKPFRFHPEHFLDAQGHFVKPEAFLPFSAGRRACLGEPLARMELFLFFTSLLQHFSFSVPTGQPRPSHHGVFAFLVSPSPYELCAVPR
pIC50: −log10 of the molar value.
measured endpoint: pIC50

Input: I have this compound here, CC(C)(CCCCOCCCCC(C)(C)C(=O)O)C(=O)O , and I need its recorded pIC50.
Output: < 2.82
